Biological target: T1, human PD-L1 (human, UniProt Q9NZQ7 19-238, limits assumed)
T1 construct: also called hPD-L1
T1 sequence (Q9NZQ7 19-238 limits assumed): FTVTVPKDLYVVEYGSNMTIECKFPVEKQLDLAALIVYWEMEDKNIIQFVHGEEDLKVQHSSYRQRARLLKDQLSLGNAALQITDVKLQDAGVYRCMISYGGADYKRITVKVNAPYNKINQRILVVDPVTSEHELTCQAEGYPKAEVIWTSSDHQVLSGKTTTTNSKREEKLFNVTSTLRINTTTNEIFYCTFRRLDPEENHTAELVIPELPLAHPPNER
Assay: Octet-96 BLI; antigen not named, taken as human PD-L1
quantity: pKd
Please report pKd as the negative decimal logarithm of the molar concentration, giving only the number.

## Input Can you look up the measured pKd of BhVH5/BhVL8 (antibody, V domains shown, Humanized Clone B; constant regions (CH1-FC/CL) from the vector, expressed in 293F cells; also called humanized Clone B, Bh VH5 + Bh VL8) VH: QGQLVQSGAEVKKPGSSVKVSCKTSGFTFSSSYISWVRQAPGQGLEWMGWIYAGTGGTSYNQKFTGRVTITVDTSTSTAYMELSSLRSEDTAVYYCARHEGKYWYFDVWGQGTTVTVSS VL: EIVMTQSPATLSVSPGERATLSCSASSSVSYVHWYQQKPGQAPRPWIYDTSNLASGFPARFSGSGSGTEYTLTISSLQSEDAAVYYCHQRSSYPWTFGGGTKVEIK for me?
## Output 9.21

## Input Item DhVH1/DhVL1 (antibody, V domains shown, Humanized Clone D; constant regions (CH1-FC/CL) from the vector, 293F cells; also called humanized Clone D, Dh VH1 + Dh VL1) VH: QVQLVQSGAEVKKPGASVKVSCKASGYSFTGYTMNWVKQSHGQGLEWIGLIIPYNGGISYNQKFKDRATLTVDTSSSTAYMELSRLRSDDTAVYYCASLITTAPRDSMDYWGQGTLVTVSS VL: DIQMTQSTSSLSASVGDRVTITCRASQDISNYLNWYQQKPGGAPKLLIYYTSKLHSGVPSRFSGSGSGTDYTLTISSLQQEDIATYYCQQGDALPWTFGGGTKVEIK has what recorded pKd?
## Output 7.95

Recorded values, source patent US20230340142A1.
